# Study System: EPHA7 (Homo sapiens)
# Construct: purchased Eurofins DiscoverX KINOMEscan (scanTK)
# Sequence (Q15375 28-998): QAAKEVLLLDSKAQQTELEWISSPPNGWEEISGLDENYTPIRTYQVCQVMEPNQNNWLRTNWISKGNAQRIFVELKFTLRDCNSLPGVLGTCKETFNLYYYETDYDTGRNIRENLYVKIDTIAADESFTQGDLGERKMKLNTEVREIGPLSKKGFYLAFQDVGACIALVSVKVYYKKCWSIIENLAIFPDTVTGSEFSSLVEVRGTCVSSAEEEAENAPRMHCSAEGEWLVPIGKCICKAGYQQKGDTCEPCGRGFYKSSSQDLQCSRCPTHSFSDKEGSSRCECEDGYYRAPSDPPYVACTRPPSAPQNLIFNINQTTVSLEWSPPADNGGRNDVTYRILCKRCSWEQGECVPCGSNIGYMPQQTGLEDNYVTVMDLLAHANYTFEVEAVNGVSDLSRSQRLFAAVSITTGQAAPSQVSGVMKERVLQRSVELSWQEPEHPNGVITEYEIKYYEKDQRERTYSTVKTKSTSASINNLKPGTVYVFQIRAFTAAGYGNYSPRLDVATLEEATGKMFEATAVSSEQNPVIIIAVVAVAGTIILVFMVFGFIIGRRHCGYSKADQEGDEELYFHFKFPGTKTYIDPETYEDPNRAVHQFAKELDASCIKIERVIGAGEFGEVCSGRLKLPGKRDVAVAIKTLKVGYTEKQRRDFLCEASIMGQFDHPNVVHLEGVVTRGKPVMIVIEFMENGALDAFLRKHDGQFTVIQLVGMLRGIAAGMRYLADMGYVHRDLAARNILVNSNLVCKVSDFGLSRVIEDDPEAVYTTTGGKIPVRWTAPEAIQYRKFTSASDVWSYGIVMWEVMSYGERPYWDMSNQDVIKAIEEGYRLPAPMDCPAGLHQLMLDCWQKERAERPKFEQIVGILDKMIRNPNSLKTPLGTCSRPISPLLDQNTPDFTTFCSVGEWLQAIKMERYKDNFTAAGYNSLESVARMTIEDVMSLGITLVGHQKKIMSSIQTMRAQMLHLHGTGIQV
# Method Description: KINOMEscan ScanTK
# Format: binding
# Conditions Used: @1000nM, read-out: %Control
Hi there, I'd appreciate the recorded remaining binding at 1 µM for every entry that follows.
Numbers only, in %.

Kindly give each listed record's remaining binding at 1 µM.
1. CCOC(=O)c1cnc(S(C)(=O)=O)nc1N1CCC[C@@H](n2nc(-c3ccc(Oc4ccccc4)cc3)c3c(N)ncnc32)C1
2. C=CC(=O)N1CCC[C@@H](n2nc(-c3ccc(Oc4ccccc4)cc3)c3c(N)ncnc32)C1 [Compound 1g, Ibrutinib, reference compound]

Marked response:
1: 97; 2: 95

Kindly give each listed record's remaining binding at 1 µM.
1. COC(=O)c1cnc(S(C)(=O)=O)nc1N1CCCC(n2nc(-c3ccc(Oc4ccccc4)cc3)c3c(N)ncnc32)C1 (centres unmarked)
2. Cc1cnc(S(C)(=O)=O)nc1N1CCCC(n2nc(-c3ccc(Oc4ccccc4)cc3)c3c(N)ncnc32)C1 (centres unmarked)
3. CNC(=O)c1cnc(S(C)(=O)=O)nc1N1CCCC(n2nc(-c3ccc(Oc4ccccc4)cc3)c3c(N)ncnc32)C1 (centres unmarked)

Marked response:
1. 93
2. 97
3. 99

----------
Hi there, I'd appreciate the recorded remaining binding at 1 µM for every entry that follows.
# Study System: ABL1(E255K)-phosphorylated (Homo sapiens, UniProt P00519, E255K)
# Construct: purchased Eurofins DiscoverX KINOMEscan (scanTK)
# Method Description: KINOMEscan ScanTK
# Type: binding
# Conditions Used: read-out: %Control @1000nM
Numbers only, in %.

> print(dat)
                                   compound  unit.abbreviation  result.value
1  COC(=O)c1cnc(S(C)(=O)=O)nc1N1CCCC(n2nc(-c3ccc(Oc4ccccc4)cc3)c3c(N)ncnc32)C1 (centres unmarked)                  %            81
2  CNC(=O)c1cnc(S(C)(=O)=O)nc1N1CCCC(n2nc(-c3ccc(Oc4ccccc4)cc3)c3c(N)ncnc32)C1 (centres unmarked)                  %            90
3  Cc1cnc(S(C)(=O)=O)nc1N1CCCC(n2nc(-c3ccc(Oc4ccccc4)cc3)c3c(N)ncnc32)C1 (centres unmarked)                  %            76
4  CCOC(=O)c1cnc(S(C)(=O)=O)nc1N1CCC[C@@H](n2nc(-c3ccc(Oc4ccccc4)cc3)c3c(N)ncnc32)C1                  %            81

In the following, a different compound is considered.
Exam item: remaining binding at 1 µM for C=CC(=O)N1CCC[C@@H](n2nc(-c3ccc(Oc4ccccc4)cc3)c3c(N)ncnc32)C1 [Compound 1g, Ibrutinib, reference compound] ?
Marked response: 64

----------
# Study System: EGFR (Homo sapiens, UniProt P00533)
# Construct: purchased Eurofins DiscoverX KINOMEscan (scanTK)
# Sequence (P00533 25-1210): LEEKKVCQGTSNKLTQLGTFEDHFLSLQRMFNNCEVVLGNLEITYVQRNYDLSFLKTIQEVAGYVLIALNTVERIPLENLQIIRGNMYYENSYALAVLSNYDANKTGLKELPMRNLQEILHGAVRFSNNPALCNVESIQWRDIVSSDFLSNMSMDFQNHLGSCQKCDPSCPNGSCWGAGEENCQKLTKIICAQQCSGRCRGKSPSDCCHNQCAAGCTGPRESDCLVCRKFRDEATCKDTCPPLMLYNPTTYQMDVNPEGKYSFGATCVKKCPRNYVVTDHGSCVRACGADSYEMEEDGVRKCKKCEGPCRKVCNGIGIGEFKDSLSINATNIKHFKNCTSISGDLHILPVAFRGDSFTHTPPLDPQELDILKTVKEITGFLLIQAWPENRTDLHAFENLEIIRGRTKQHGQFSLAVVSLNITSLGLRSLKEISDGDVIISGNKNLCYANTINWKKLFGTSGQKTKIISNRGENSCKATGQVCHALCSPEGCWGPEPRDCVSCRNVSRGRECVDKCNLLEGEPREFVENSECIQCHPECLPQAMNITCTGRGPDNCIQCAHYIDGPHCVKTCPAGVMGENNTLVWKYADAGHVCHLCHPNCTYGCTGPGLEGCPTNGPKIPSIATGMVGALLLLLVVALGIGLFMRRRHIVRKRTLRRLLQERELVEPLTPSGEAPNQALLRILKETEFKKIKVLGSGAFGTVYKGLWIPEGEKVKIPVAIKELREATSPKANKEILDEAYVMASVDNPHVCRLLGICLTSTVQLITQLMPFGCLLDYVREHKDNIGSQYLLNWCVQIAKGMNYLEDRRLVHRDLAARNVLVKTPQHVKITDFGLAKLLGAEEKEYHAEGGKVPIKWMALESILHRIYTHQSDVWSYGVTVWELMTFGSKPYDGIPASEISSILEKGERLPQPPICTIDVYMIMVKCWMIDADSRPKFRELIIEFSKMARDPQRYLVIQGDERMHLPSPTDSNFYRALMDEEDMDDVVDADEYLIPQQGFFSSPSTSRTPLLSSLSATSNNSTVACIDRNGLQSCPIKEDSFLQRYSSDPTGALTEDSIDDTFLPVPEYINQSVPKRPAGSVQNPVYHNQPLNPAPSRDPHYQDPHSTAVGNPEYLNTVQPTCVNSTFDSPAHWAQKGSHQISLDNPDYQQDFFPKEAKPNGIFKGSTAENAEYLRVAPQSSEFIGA
# Method Description: KINOMEscan ScanTK
# Type: binding
# Conditions Used: @1000nM; EGFR
Hi there, I'd appreciate the recorded difference in %Control versus reference compound Ib at 1 µM for every entry that follows.
Numbers only, in %.

> print(dat)
                                   compound  result.value
1  Cc1cnc(S(C)(=O)=O)nc1N1CCCC(n2nc(-c3ccc(Oc4ccccc4)cc3)c3c(N)ncnc32)C1 (stereo not shown) [Compound 8a]          52.8

Kindly give each listed record's difference in %Control versus reference compound Ib at 1 µM.
1. CNC(=O)c1cnc(S(C)(=O)=O)nc1N1CCCC(n2nc(-c3ccc(Oc4ccccc4)cc3)c3c(N)ncnc32)C1 (stereo not shown) [Compound 8d]
2. COC(=O)c1cnc(S(C)(=O)=O)nc1N1CCCC(n2nc(-c3ccc(Oc4ccccc4)cc3)c3c(N)ncnc32)C1 (stereo not shown) [Compound 8b]
3. CCOC(=O)c1cnc(S(C)(=O)=O)nc1N1CCC[C@@H](n2nc(-c3ccc(Oc4ccccc4)cc3)c3c(N)ncnc32)C1 [Compound 8c]

Marked response:
1. 16.8
2. 32.8
3. 42.8

----------
# Study System: TYK2(JH2domain-pseudokinase) (Homo sapiens)
# Construct: TYK2(JH2domain-pseudokinase); purchased Eurofins DiscoverX KINOMEscan (scanTK)
# Method Description: KINOMEscan ScanTK
# Type: binding
# Conditions Used: @1000nM, read-out: % difference (compound - Ib %Control)
Parameter Measured: difference in %Control versus Ib at 1 µM (%)
Answers are plain numbers, in %.

Solved cases below.
> print(dat)
                                   compound                        parameter.measured  result.value
1  COC(=O)c1cnc(S(C)(=O)=O)nc1N1CCCC(n2nc(-c3ccc(Oc4ccccc4)cc3)c3c(N)ncnc32)C1 (stereo not shown) [Compound 8b]  difference in %Control versus Ib at 1 µM             8
2  Cc1cnc(S(C)(=O)=O)nc1N1CCCC(n2nc(-c3ccc(Oc4ccccc4)cc3)c3c(N)ncnc32)C1 (stereo not shown) [Compound 8a]  difference in %Control versus Ib at 1 µM             4
3  CNC(=O)c1cnc(S(C)(=O)=O)nc1N1CCCC(n2nc(-c3ccc(Oc4ccccc4)cc3)c3c(N)ncnc32)C1 (stereo not shown) [Compound 8d]  difference in %Control versus Ib at 1 µM             8

In the following, a different compound is considered.
Exam item: difference in %Control versus Ib at 1 µM for CCOC(=O)c1cnc(S(C)(=O)=O)nc1N1CCC[C@@H](n2nc(-c3ccc(Oc4ccccc4)cc3)c3c(N)ncnc32)C1 [Compound 8c] ?
Marked response: 12

----------
# Study System: FGFR1 (Homo sapiens, UniProt P11362)
# Construct: purchased Eurofins DiscoverX KINOMEscan (scanTK)
# Sequence (P11362 22-822): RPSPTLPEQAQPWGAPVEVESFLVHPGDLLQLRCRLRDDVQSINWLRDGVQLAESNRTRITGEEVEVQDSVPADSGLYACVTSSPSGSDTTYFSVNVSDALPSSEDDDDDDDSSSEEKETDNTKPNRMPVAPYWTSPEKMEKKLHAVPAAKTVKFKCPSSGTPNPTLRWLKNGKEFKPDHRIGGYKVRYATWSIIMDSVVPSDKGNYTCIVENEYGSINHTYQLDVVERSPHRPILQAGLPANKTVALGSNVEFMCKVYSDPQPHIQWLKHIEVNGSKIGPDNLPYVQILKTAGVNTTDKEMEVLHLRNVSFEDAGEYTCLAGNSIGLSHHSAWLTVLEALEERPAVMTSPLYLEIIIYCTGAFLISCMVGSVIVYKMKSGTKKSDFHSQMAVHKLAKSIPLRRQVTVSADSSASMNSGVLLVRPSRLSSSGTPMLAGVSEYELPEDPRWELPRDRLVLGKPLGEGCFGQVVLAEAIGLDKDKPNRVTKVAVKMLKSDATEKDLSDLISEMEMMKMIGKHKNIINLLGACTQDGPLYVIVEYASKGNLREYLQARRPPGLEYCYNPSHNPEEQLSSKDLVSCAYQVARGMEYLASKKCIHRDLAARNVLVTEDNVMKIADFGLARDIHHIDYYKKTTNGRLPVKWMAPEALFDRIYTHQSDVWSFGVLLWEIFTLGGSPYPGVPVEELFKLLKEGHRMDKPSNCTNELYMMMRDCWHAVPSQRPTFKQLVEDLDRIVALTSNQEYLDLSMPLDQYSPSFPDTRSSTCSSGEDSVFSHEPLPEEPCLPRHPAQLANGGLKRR
# Method Description: KINOMEscan ScanTK
# Assay type: binding
# Conditions Used: @1000nM
Parameter Measured: difference in %Control from compound Ib at 1 µM (%)
One number for each entry, in %.

> print(dat)
                                   compound                          study.system  unit.abbreviation  result.value
1  COC(=O)c1cnc(S(C)(=O)=O)nc1N1CCCC(n2nc(-c3ccc(Oc4ccccc4)cc3)c3c(N)ncnc32)C1 (stereo not shown) [Compound 8b]  FGFR1 (Homo sapiens, UniProt P11362)                  %            16
2  Cc1cnc(S(C)(=O)=O)nc1N1CCCC(n2nc(-c3ccc(Oc4ccccc4)cc3)c3c(N)ncnc32)C1 (stereo not shown) [Compound 8a]  FGFR1 (Homo sapiens, UniProt P11362)                  %            44
3  CCOC(=O)c1cnc(S(C)(=O)=O)nc1N1CCC[C@@H](n2nc(-c3ccc(Oc4ccccc4)cc3)c3c(N)ncnc32)C1 [Compound 8c]  FGFR1 (Homo sapiens, UniProt P11362)                  %            53

In the following, a different compound is considered.
Exam item: Short answer please: difference in %Control from compound Ib at 1 µM, FGFR1 (Homo sapiens, UniProt P11362), entry CNC(=O)c1cnc(S(C)(=O)=O)nc1N1CCCC(n2nc(-c3ccc(Oc4ccccc4)cc3)c3c(N)ncnc32)C1 (stereo not shown) [Compound 8d]
Marked response: 45

----------
# Study System: FES (Homo sapiens)
# Construct: purchased Eurofins DiscoverX KINOMEscan (scanTK)
# Sequence (P07332 whole entry): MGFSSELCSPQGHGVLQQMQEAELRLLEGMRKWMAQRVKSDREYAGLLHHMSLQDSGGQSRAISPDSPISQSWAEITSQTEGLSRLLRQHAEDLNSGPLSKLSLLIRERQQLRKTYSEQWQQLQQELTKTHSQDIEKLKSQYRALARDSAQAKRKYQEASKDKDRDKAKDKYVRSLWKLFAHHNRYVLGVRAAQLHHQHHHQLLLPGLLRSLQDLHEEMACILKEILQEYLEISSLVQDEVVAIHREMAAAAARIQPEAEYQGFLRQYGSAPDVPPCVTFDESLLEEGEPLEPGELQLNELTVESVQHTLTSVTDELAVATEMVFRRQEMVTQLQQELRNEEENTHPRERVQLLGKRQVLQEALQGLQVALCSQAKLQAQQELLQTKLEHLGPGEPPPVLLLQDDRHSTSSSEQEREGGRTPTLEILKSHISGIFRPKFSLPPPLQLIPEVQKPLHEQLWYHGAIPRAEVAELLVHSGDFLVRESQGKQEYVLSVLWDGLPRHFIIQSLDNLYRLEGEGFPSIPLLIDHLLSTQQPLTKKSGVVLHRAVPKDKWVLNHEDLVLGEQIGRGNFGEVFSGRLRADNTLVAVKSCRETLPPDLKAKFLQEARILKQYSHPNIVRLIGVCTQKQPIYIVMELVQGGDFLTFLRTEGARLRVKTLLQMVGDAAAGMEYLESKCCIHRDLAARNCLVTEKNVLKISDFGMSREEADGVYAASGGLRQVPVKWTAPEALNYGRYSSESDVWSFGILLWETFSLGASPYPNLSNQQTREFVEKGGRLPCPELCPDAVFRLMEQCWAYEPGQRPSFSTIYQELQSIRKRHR
# Method Description: KINOMEscan ScanTK
# Format: binding
# Conditions Used: read-out: %Control @1000nM
Hi there, I'd appreciate the recorded remaining binding at 1 µM for every entry that follows.
One number for each entry, in %.

Kindly give each listed record's remaining binding at 1 µM.
1. C=CC(=O)N1CCC[C@@H](n2nc(-c3ccc(Oc4ccccc4)cc3)c3c(N)ncnc32)C1 [Compound 1g, Ibrutinib, reference compound]
2. CNC(=O)c1cnc(S(C)(=O)=O)nc1N1CCCC(n2nc(-c3ccc(Oc4ccccc4)cc3)c3c(N)ncnc32)C1 (centres unmarked) [Compound 8d]
3. CCOC(=O)c1cnc(S(C)(=O)=O)nc1N1CCC[C@@H](n2nc(-c3ccc(Oc4ccccc4)cc3)c3c(N)ncnc32)C1 [Compound 8c]
4. Cc1cnc(S(C)(=O)=O)nc1N1CCCC(n2nc(-c3ccc(Oc4ccccc4)cc3)c3c(N)ncnc32)C1 (centres unmarked) [Compound 8a]
5. COC(=O)c1cnc(S(C)(=O)=O)nc1N1CCCC(n2nc(-c3ccc(Oc4ccccc4)cc3)c3c(N)ncnc32)C1 (centres unmarked) [Compound 8b]

Marked response:
1. 100
2. 100
3. 96
4. 100
5. 100

----------
# Study System: IGF1R (Homo sapiens, UniProt P08069)
# Construct: purchased Eurofins DiscoverX KINOMEscan (scanTK)
# Sequence (P08069 31-1367): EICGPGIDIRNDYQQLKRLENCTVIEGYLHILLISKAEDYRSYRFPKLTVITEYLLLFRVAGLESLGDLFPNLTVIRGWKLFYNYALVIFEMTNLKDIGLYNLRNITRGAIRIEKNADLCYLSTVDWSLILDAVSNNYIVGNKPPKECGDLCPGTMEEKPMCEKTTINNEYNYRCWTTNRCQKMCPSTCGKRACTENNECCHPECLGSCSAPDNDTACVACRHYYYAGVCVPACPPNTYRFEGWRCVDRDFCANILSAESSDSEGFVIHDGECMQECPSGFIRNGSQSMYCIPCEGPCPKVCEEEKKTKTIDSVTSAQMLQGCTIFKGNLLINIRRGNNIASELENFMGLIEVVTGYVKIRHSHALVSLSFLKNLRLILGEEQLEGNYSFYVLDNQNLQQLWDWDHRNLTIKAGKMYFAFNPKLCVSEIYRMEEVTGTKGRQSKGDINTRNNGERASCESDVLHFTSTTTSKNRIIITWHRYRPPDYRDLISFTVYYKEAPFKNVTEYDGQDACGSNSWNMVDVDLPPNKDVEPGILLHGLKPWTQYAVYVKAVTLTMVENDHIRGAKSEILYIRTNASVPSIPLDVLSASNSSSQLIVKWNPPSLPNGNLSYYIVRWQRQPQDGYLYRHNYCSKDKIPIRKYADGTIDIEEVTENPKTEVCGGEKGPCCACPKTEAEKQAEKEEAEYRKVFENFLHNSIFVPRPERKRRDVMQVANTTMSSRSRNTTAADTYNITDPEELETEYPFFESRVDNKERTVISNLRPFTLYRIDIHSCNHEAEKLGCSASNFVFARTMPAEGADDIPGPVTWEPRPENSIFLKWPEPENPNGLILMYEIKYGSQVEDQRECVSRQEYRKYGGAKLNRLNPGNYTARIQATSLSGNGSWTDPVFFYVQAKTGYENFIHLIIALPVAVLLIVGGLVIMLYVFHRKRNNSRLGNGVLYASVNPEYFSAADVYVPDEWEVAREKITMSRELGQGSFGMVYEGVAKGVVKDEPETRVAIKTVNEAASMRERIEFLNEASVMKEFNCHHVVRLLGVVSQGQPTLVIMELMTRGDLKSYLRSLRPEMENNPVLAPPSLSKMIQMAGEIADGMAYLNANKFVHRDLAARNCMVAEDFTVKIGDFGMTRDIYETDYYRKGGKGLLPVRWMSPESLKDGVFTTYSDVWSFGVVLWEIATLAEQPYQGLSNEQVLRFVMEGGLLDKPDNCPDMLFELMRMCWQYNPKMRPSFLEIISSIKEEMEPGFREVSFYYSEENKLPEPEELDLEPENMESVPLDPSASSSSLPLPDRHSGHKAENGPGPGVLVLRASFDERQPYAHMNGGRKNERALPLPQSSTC
# Method Description: KINOMEscan ScanTK
# Format: binding
# Conditions Used: @1000nM
Hi there, I'd appreciate the recorded % Control difference from reference compound Ib at 1 µM for every entry that follows.
Answers are plain numbers, in %.

Solved cases below.
> print(dat)
                                   compound                          study.system  unit.abbreviation  result.value
1  Cc1cnc(S(C)(=O)=O)nc1N1CCCC(n2nc(-c3ccc(Oc4ccccc4)cc3)c3c(N)ncnc32)C1 (stereo not shown) [Compound 8a]  IGF1R (Homo sapiens, UniProt P08069)                  %             4
2  CCOC(=O)c1cnc(S(C)(=O)=O)nc1N1CCC[C@@H](n2nc(-c3ccc(Oc4ccccc4)cc3)c3c(N)ncnc32)C1 [Compound 8c]  IGF1R (Homo sapiens, UniProt P08069)                  %            -4
3  CNC(=O)c1cnc(S(C)(=O)=O)nc1N1CCCC(n2nc(-c3ccc(Oc4ccccc4)cc3)c3c(N)ncnc32)C1 (stereo not shown) [Compound 8d]  IGF1R (Homo sapiens, UniProt P08069)                  %             4

In the following, a different compound is considered.
Exam item: % Control difference from reference compound Ib at 1 µM for COC(=O)c1cnc(S(C)(=O)=O)nc1N1CCCC(n2nc(-c3ccc(Oc4ccccc4)cc3)c3c(N)ncnc32)C1 (stereo not shown) [Compound 8b] ?
Marked response: -2
